- System: UniProt:Q9NWZ3
- Assay text: IRAK4 Inhibition Assay
- Type: biochemical
- Study conditions: ATP 500 μM; IRAK4 0.6 nM; read-out: IRAK4 IC50
Observation type: pIC50
The read-out pIC50 is expressed as -log10 of concentration in moles per litre.

Compound: CNC(=O)[C@H]1CC[C@H](NC(=O)c2cnc(-n3ncc4cc(C#N)c(N)nc43)cc2N[C@H]2CCCC[C@@H]2F)CC1
pIC50: 8.66
--
Compound: CC(C)Nc1cc(-n2ccc3cc(CNC(=O)C4CCOC4)cnc32)ncc1C(=O)NC[C@@H](F)C(C)(C)O (some centres unmarked)
pIC50: 7.98
--
Compound: C[C@@H](Nc1cc(-n2ccc3cc(C#N)cnc32)ncc1C(=O)NC[C@@H](F)C(C)(C)O)C1CC1
pIC50: 8.55
--
Compound: CC(C)(O)[C@H](F)CNC(=O)c1cnc(-n2ncc3cc(C#N)cnc32)cc1NC1CN(c2ncc(F)cn2)C1
pIC50: 8.20
--
Compound: CCOC(=O)NCc1cnc2c(ccn2-c2cc(NC(C)C)c(C(=O)NC[C@@H](F)C(C)(C)O)cn2)c1
pIC50: 8.27

Problem: Tell us which pIC50 value is on record for CC(=O)N1CCC(Nc2cc(-n3ccc4cc(C#N)cnc43)ncc2C(=O)NC[C@@H](F)C(C)(C)O)CC1
Result: 8.10

Problem: Tell us which pIC50 value is on record for CC(=O)N1CC[C@@H](Nc2cc(-n3ccc4cc(C#N)cnc43)ncc2C(=O)NC[C@@H](F)C(C)(C)O)C1
Result: 8.54

Problem: Tell us which pIC50 value is on record for CC(C)(O)[C@H](F)CNC(=O)c1cnc(-n2ncc3cc(C#N)cnc32)cc1NC1CCN(c2ccccc2)CC1
Result: 8.40

Problem: Tell us which pIC50 value is on record for CC(C)(O)[C@H](F)CNC(=O)c1cnc(-n2ccc3cc(C#N)cnc32)cc1NC1CCN(S(C)(=O)=O)CC1
Result: 8.77

Problem: Tell us which pIC50 value is on record for CC(C)(O)[C@H](F)CNC(=O)c1cnc(-n2ncc3cc(F)cnc32)cc1NC1CCC(F)C1 (some centres unmarked) [Example 620]
Result: 8.47

Problem: Tell us which pIC50 value is on record for CC(C)(O)[C@H]1CC[C@H](NC(=O)c2cnc(-n3ncc4cc(Cl)cnc43)cc2NC2COC2)CC1
Result: 8.21

Problem: Tell us which pIC50 value is on record for CC(C)(O)[C@H](F)CNC(=O)c1cnc(-n2ccc3cc(C#N)cnc32)cc1N[C@@H]1CCNC1
Result: 7.86

Problem: Tell us which pIC50 value is on record for CC(C)(O)[C@H](F)CNC(=O)c1cnc(-n2ccc3cc(C#N)cnc32)cc1NC1CCC(NCC(F)(F)F)C1 (some centres unmarked) [Example 488]
Result: 8.17

Problem: Tell us which pIC50 value is on record for CC(C)(O)[C@H](F)CNC(=O)c1cnc(-n2ncc3cc(C#N)cnc32)cc1N[C@H]1CC[C@H](NC(=O)c2ccccc2F)CC1
Result: 8.41

====

- System: IRAK4 (Homo sapiens (Human), UniProt Q9NWZ3)
- Sequence (Q9NWZ3 whole entry, species assumed): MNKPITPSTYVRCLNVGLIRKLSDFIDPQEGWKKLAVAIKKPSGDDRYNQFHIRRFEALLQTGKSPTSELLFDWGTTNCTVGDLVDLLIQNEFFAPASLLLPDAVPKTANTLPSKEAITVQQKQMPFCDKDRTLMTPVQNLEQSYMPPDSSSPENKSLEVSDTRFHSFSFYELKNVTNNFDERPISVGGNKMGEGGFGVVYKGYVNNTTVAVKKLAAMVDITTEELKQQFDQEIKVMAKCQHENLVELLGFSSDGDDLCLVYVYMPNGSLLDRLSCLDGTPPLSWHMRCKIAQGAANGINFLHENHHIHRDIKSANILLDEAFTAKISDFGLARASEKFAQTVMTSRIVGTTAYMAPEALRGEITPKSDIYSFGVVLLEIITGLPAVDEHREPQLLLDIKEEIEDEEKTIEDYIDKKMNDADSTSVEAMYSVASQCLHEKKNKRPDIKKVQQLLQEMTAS
- Assay text: IRAK4 Inhibition Assay
- Assay type: biochemical
- Study conditions: IRAK4 Inhibition Assay; ATP 500 μM; read-out: IRAK4 IC50
# pIC50 per record follows
The read-out pIC50 is expressed as -log10 of concentration in moles per litre.

Some solved cases for reference:
Structure: CC(C)Nc1cc(-n2ncc3cc(C#N)cnc32)ncc1C(=O)NCCC(C)(C)O
Observation type: pIC50
Observed value: 8.19
--
Structure: CC(C)Nc1cc(-n2ncc3cc(C#N)cnc32)ncc1C(=O)Nc1ccc(N2CCOCC2)cn1
Observation type: pIC50
Observed value: 8.08
--
Structure: COC[C@H](F)CNC(=O)c1cnc(-n2ccc3cc(C#N)cnc32)cc1NC(C)C
Observation type: pIC50
Observed value: 8.55
--
Structure: CC(=O)Nc1ccc(CCNC(=O)c2cnc(-n3ncc4cc(C#N)cnc43)cc2NC(C)C)cc1
Observation type: pIC50
Observed value: 8.80

Note: attention shifts to another entry.
Problem: Tell us which pIC50 value is on record for CC(C)(O)[C@H](F)CNC(=O)c1cnc(-n2ccc3cc(C#N)cnc32)cc1NCC1(F)CCC1
Result: 8.82
